Tested on: β-galactosidase in CMV-LacZ C2C12 myotubes
Test: CMV-LacZ secondary screen in C2C12 myotubes (β-Gal stabilizing assay)
Format: cell-based, mouse
Conditions: 5 uM; C2C12 CMV-LacZ myotubes; fold relative to DMSO
Please note: CMV-LACZ in Myotubes, signal relative to DMSO exactly at 1 is F. Only values below 1 get T.

Compound	Answer Label
COc1ccc(N2CCN(CCC3Oc4cc([N+](=O)[O-])ccc4NC3=O)CC2)cc1 (stereo not drawn)	F
CC1CCCCC12NC(=O)N(CC(=O)OCc1cccc(F)c1)C2=O (stereo not drawn)	T
CC(C)c1ccc(NC(=O)CN2C(=O)c3ccccc3S2(=O)=O)cc1	T
CC(=O)Nc1nonc1-c1nc2ccccc2n1CCC(C)C	F
CCOc1ccc(-n2c(C)c(C(=O)O)c3cc(OC)ccc32)cc1	T
O=C(Cn1nc(-c2ccc(Cl)cc2)ccc1=O)N1CCC2(CC1)OCCO2	F

The reported measurements were obtained from patent US9980943B2.
